# Test system: KM12 colon
# measurement notes: NCI tumour cell line growth inhibition, 48 h
Here, each record is paired with measured TGI data.
# output: bare number, implied unit µM

[[record]]
compound = "CN(C)c1ccc(C2SCC(=O)N2c2ccc(Oc3ccc(Cl)cc3)c(Cl)c2)cc1 (stereo not given)"
parameter = "TGI"
value_reported = 40.9


(Q) Item under review: CC(C)(C[C@H]1CN(S(=O)(=O)c2cccc(C(F)(F)F)c2)c2cc(-c3cc(F)cc(OC(F)F)c3)ccc2O1)C(=O)O . Reported TGI?
(A) 16.4

(Q) Item under review: O=[N+]([O-])/C(C(Cl)=C(Cl)Cl)=C(\N1CCCCC1)n1cncn1 . Reported TGI?
(A) 40.8

(Q) Item under review: O=S(=O)(Nc1cc(Sc2cccc3cccnc23)c(O)c2ccccc12)c1ccccc1 . Reported TGI?
(A) 16.5

(Q) Item under review: C[C@]12CC[C@@H]3c4cc(OCC(F)(F)F)c(O)cc4/C(=N/O)C[C@H]3[C@@H]1CC[C@@H]2O . Reported TGI?
(A) 11.2

----------
# Test system: CAKI-1 renal
# measurement notes: NCI tumour cell line growth inhibition, 48 h
Here, each record is paired with measured TGI data.

Please review the entries below; each comes with its answer.
[[record]]
compound = "COc1cc2[nH]c(C(=O)c3cc(OC)c(OC)c(OC)c3)c(N)c2cc1C#CC1CC1"
target_desc = "CAKI-1 renal"
value_reported = "> 100 µM"

[[record]]
compound = "O=C1c2cccnc2-c2nccc3c2c1nc1cc(Br)ccc13"
target_desc = "CAKI-1 renal"
value_reported = "0.591 µM"

[[record]]
compound = "CN(CCC#N)c1ccc(/C=C(\\C#N)c2ccc(Br)cc2)cc1"
target_desc = "CAKI-1 renal"
value_reported = "> 100 µM"

[[record]]
compound = "N#CC1CC2(C1)OCCS2 (stereo unspecified)"
target_desc = "CAKI-1 renal"
value_reported = "> 100 µM"

[[record]]
compound = "COc1ccc(C2OC(c3ccncc3)=NN2C)cc1OC (stereo unspecified)"
target_desc = "CAKI-1 renal"
value_reported = "> 100 µM"


Continue with the compound presented below.
(Q) Item under review: CC(C)(C)C(=O)CC1=Nc2ccccc2SC1(O)CC(=O)C(C)(C)C (stereo unspecified) . Reported TGI?
(A) 56.8 µM

----------
Here, each record is paired with measured GI50 data.
# Test system: HCC-2998 colon
# measurement notes: NCI tumour cell line growth inhibition, 48 h

(Q) Item under review: CC(C)(C[C@H]1CN(S(=O)(=O)c2cccc(C(F)(F)F)c2)c2cc(-c3cc(F)cc(OC(F)F)c3)ccc2O1)C(=O)O . Reported GI50?
(A) 10100 nM

(Q) Item under review: CC/C=C\C[C@H]1C/C=C2/C(=O)C=C[C@@H]2C/C=C\CCCC(=O)O1 . Reported GI50?
(A) 1760 nM

(Q) Item under review: CCSc1nc(SCC)c2cn[nH]c2n1 . Reported GI50?
(A) 35600 nM

(Q) Item under review: CCn1c(SCc2ccc(C)cc2)nnc1-c1nn(-c2ccc(Cl)cc2Cl)c(-c2ccc(Cl)cc2)c1C . Reported GI50?
(A) 2350 nM

----------
# System: NCI/ADR-RES ovarian
# measurement notes: NCI tumour cell line growth inhibition, 48 h
Here, each record is paired with measured GI50 data.

[[record]]
molecule = "CC(CO)(CO)NCCCCn1ccc2c1C(=O)c1c(c(O)c3ccccc3c1O)C2=O"
value_reported = "2.36 µM"

[[record]]
molecule = "CC(C)C[C@H](NC(=O)/C=C/Cn1ccc2ccccc2c1=O)B(O)O"
value_reported = "90.8 µM"

[[record]]
molecule = "Cn1c(=O)c(Cc2ccccc2F)cc2cnc(NC3CCOCC3)nc21"
value_reported = "> 25 µM"


(Q) Item under review: CC(=O)C(=CN1CCN(C(=O)c2ccco2)C1=S)C(C)=O . Reported GI50?
(A) 23.2 µM

(Q) Item under review: CCOc1cc(C(C)(C)C)ccc1C1=N[C@@](C)(c2ccc(Cl)cc2)[C@@](C)(c2ccc(Cl)cc2)N1C(=O)N1CCN(CCCS(C)(=O)=O)CC1 . Reported GI50?
(A) 4.97 µM

(Q) Item under review: C1CCC([PH+](C2CCCCC2)C2CCCCC2[PH+](C2CCCCC2)C2CCCCC2)CC1.O=C(C1[CH-]CCCC1)C1CCCC[N-]1.[Au] (centres undefined) . Reported GI50?
(A) 1.8 µM

(Q) Item under review: COc1cccc2c(=O)c3c(sc12)c(N1CCNCC1)nc1ccccc13 . Reported GI50?
(A) 1.75 µM

(Q) Item under review: COc1cc2[nH]c(C(=O)c3cc(OC)c(OC)c(OC)c3)c(N)c2cc1C#CC1CC1 . Reported GI50?
(A) 2.3 µM

(Q) Item under review: CC(=O)N[C@H]1CSSC[C@@H](C(N)=O)NC(=O)[C@H](C(C)C)NC(=O)[C@H](C)NC(=O)[C@H](Cc2cnc[nH]2)NC1=O . Reported GI50?
(A) > 100 µM
